Reported Average lung weight by item:
Species on record: Mus musculus
protocol_summary: Autopsy data was evaluated as average lung weight, mg
Assay type: functional
Report the value in mg with no unit label.

Answered examples (3):
O=C1CN2C[C@H]3C(=O)N(CN4CCOCC4)C(=O)CN3C[C@@H]2C(=O)N1CN1CCOCC1 700
O=C1CN2C[C@@H]3C(=O)N(CN4CCOCC4)C(=O)CN3C[C@@H]2C(=O)N1CN1CCOCC1 358
O=C1CN2C[C@H]3C(=O)NC(=O)CN3C[C@@H]2C(=O)N1 853

Could you now look at the following compound, please?
If you can, please state the reported Average lung weight value of `O=C1CN2C[C@@H]3C(=O)NC(=O)CN3C[C@@H]2C(=O)N1` .
640
